# Test system: Escherichia coli
# Assay Overview: Antibacterial activity against Escherichia coli ATCC 35218 after 24 hrs by MTT assay
# Assay type: functional
# Condition: ATCC 35218, 24 h
# note: exactly 7 µg/mL is not below, so it is NO; use YES for MIC strictly under it

{"columns": ["Compound Structure", "Class Assignment"],
 "data": [
  ["O=C(Nc1ccccc1F)N1CCOCC1", "YES"],
  ["O=C(Nc1ccc(Br)cc1)N1CCOCC1", "YES"],
  ["CCN(CC)C(=O)Nc1ccc(F)cc1", "NO"],
  ["CCN(CC)C(=O)Nc1ccc(C(C)C)cc1", "NO"],
  ["COc1ccc(NC(=O)N2CCOCC2)cc1", "NO"],
  ["CCN(CC)C(=O)Nc1ccc(Cl)cc1Cl", "NO"],
  ["CCN(CC)C(=O)Nc1ccc(F)cc1F", "NO"],
  ["CC1(C)S[C@@H]2[C@H](NC(=O)Cc3ccccc3)C(=O)N2[C@H]1C(=O)O", "NO"],
  ["CCN(CC)C(=O)Nc1ccc(Br)cc1", "NO"]
]}
